- Tested on: KM20L2 colon
- assay.comment: NCI tumour cell line growth inhibition, 48 h
endpoint.label: TGI

Which TGI reading was recorded for the compound BrC(/C=N/Nc1nnc(-c2ccccc2)c(-c2ccccc2)n1)C(Br)c1ccccc1 (stereo unspecified) ?
> 100 µM

Which TGI reading was recorded for the compound C/C(=N\NC(N)=S)c1ccc(Oc2ccccc2)cc1 ?
26.5 µM

Which TGI reading was recorded for the compound CSC(SC)=C1Sc2cccc(Cl)c2S1 ?
> 100 µM

Which TGI reading was recorded for the compound COc1ccc(Cc2c3cc(OC)c(OC)cc3cc[n+]2C)cc1 ?
24.3 µM

Which TGI reading was recorded for the compound C[C@H](O)CCC(=O)c1ccoc1 ?
> 100 µM

Which TGI reading was recorded for the compound O=C(CC1(O)C(=O)Nc2ccc(Br)cc21)c1cccc([N+](=O)[O-])c1 (stereo unspecified) ?
> 100 µM

---

- Tested on: OVCAR-4 ovarian
- assay.comment: NCI tumour cell line growth inhibition, 48 h
Please note: fulfilled applies when TGI is 20 µM or greater, and not fulfilled applies otherwise.

Is TGI at least 20 µM? Consider COc1cccc(O)c1-c1cc(=O)c2c(O)c(OC)c(OC)c(OC)c2o1
fulfilled

Is TGI at least 20 µM? Consider O=C(CNC(=O)c1cccc2ccccc12)Nc1ccccc1Oc1ccc(O)cc1
fulfilled

Is TGI at least 20 µM? Consider CCCCCCCCCCCCOC(=N)N1CCOCC1
fulfilled

Is TGI at least 20 µM? Consider O=C1C(CN2CCCC2)CCC1CN1CCCC1 (stereo unspecified)
fulfilled

Is TGI at least 20 µM? Consider COc1cc(-c2nn(-c3cccc(NC(=O)NCCNC(=O)c4ccccc4)c3)cc2-c2ccncc2)ccc1Cl
fulfilled

Is TGI at least 20 µM? Consider COc1ccc(Cc2nc3cc(C(F)(F)F)ccc3n2C[C@@H]2CCCN3CCCCC23)cc1 (stereo partly specified)
fulfilled

Is TGI at least 20 µM? Consider Cc1cc(Br)ccc1N=NC1C(=O)ON=C1c1ccccc1 (stereo unspecified)
fulfilled

Is TGI at least 20 µM? Consider COc1ncc(-c2ccc3nc(N)n(-c4ccccc4C(F)(F)F)c(=O)c3c2)cc1S(=O)(=O)Nc1ccc(F)cc1F
fulfilled

Is TGI at least 20 µM? Consider O=P(c1ccccc1)(c1ccccc1)C1CC=C2CCCCCC2C1 (stereo unspecified)
fulfilled

Is TGI at least 20 µM? Consider O=[N+]([O-])c1ccc(-c2ccc([C@H]3CC(c4cc(F)c(Cl)cc4Cl)=NN3)o2)cc1
fulfilled

Is TGI at least 20 µM? Consider O=C(N=Nc1c(O)[nH]c2c(Cl)cc(Cl)cc12)C(=O)Nc1cccc(C(F)(F)F)c1
fulfilled

Is TGI at least 20 µM? Consider CCN(CC)CCN1C(=O)c2cccc3cc(N)cc(c23)C1=O
fulfilled

Is TGI at least 20 µM? Consider CCOc1ccc(-c2nc3ccc(-c4nc5ccc(N6CCN(C)CC6)cc5[nH]4)cc3[nH]2)cc1OCC
not fulfilled

Is TGI at least 20 µM? Consider CC(=O)O[C@@H]1[C@H]2O[C@H]2[C@H]2O[C@@]2(COC(=O)c2ccccc2)[C@H]1OC(C)=O
fulfilled

Is TGI at least 20 µM? Consider CC(=O)C1=C(C)N2C(=NC3=C(CCc4ccccc43)C2c2ccc(Cl)cc2)S1 (stereo unspecified)
fulfilled

Is TGI at least 20 µM? Consider COc1cc(Nc2nc(NS(=O)(=O)c3cc(C)c(Cl)cc3S)n[nH]2)cc(OC)c1OC
fulfilled

Is TGI at least 20 µM? Consider COC(=O)N1C=Cc2c(c(C)c3c([nH]c4ccccc43)c2C)C1C (stereo unspecified)
fulfilled

Is TGI at least 20 µM? Consider COC(=O)c1nc2n(n1)-c1ccccc1C(=O)N(Cc1ccccc1)C2
fulfilled

Is TGI at least 20 µM? Consider Fc1cnccc1-c1nc2ccc3[nH]ncc3c2c2c1CCCC2
fulfilled

Is TGI at least 20 µM? Consider COc1ccc2c(c1)c(-c1nc(-c3cn(C)c4ncccc34)cs1)cn2CCCCN1CCCCC1
not fulfilled

Is TGI at least 20 µM? Consider CCc1ccc2cc3c(ccc4ccccc43)c3c2c1CC3
fulfilled

Is TGI at least 20 µM? Consider CC(=O)[O-].O=C([CH-]C(=O)c1ccccc1)c1ccccc1.O=C([CH-]C(=O)c1ccccc1)c1ccccc1.[Dy+3]
fulfilled

Is TGI at least 20 µM? Consider CN(C)CCCn1c2c(c3ccc(N4CCNCC4)cc3c1=O)C(=O)c1ccccc1-2
not fulfilled

Is TGI at least 20 µM? Consider CS(=O)c1cc(=O)c2ccccc2s1 (stereo unspecified)
not fulfilled

---

- Test system: M14 melanoma
- assay.comment: NCI tumour cell line growth inhibition, 48 h
endpoint.label: TGI

Which TGI reading was recorded for the compound O=C1C(CN2CCCC2)CCC1CN1CCCC1 (stereo unspecified) ?
29.7 µM

Which TGI reading was recorded for the compound N#Cc1nc(CCC(C(=O)O)N2C(=O)c3ccccc3C2=O)oc1N (stereo unspecified) ?
> 100 µM

Which TGI reading was recorded for the compound Cc1ccc(Nc2nc3ccccc3nc2NS(=O)(=O)c2ccc(N)cc2)cc1 ?
> 100 µM

Which TGI reading was recorded for the compound CC(C)c1cc(C(C)C)c(S(=O)(=O)N/N=C2\CC3CCC2(C)C3(C)C)c(C(C)C)c1 (stereo unspecified) ?
> 100 µM

Which TGI reading was recorded for the compound NS(=O)(=O)c1ccc(NCc2cccc3c(=O)c4ccc(Cl)cc4oc23)cc1 ?
> 93.1 µM

Which TGI reading was recorded for the compound N#CC(NNC(=O)c1ccccc1O)c1ccccc1O (stereo unspecified) ?
29.7 µM

---

- System: HS 578T breast
- assay.comment: NCI tumour cell line growth inhibition, 48 h
endpoint.label: TGI (µM)
Numeric answer only, unit µM assumed.

Which TGI reading was recorded for the molecule NC1=Nc2cc(OCCCCN3Cc4ccccc4C3)c(OCC3CC3)cc2C12CCCC2 ?
4.18

Which TGI reading was recorded for the molecule O=c1c2cc(F)ccc2sc2c(NCCCNCCO)nc3ccc(F)cc3c12 ?
4.1

Which TGI reading was recorded for the molecule CCOc1ccc(-c2nc3ccc(-c4nc5ccc(N6CCN(C)CC6)cc5[nH]4)cc3[nH]2)cc1OCC ?
5.46

Which TGI reading was recorded for the molecule O=C1/C(=C/c2ccc(Cl)cc2)NC(=S)N1CN1CCCCC1 ?
62

---

Give TGI for every item shown.
- Test system: SNB-75 CNS
- assay.comment: NCI tumour cell line growth inhibition, 48 h
Numeric answer only, unit µM assumed.

Notebook: pull reported TGI for SNB-75 CNS, entry O=P(c1ccccc1)(c1ccccc1)C1CC=C2CCCCCC2C1 (stereo not given)
62.7

Notebook: pull reported TGI for SNB-75 CNS, entry O=C(CC1(O)C(=O)Nc2ccc(Br)cc21)c1cccc([N+](=O)[O-])c1 (stereo not given)
97.2

---

- System: HCT-15 colon
- assay.comment: NCI tumour cell line growth inhibition, 48 h
Give TGI for every item shown.
Numeric answer only, unit µM assumed.

Which TGI reading was recorded for the compound N#CSc1c[nH]c2cccc(/C=C/C(=O)/C=C(O)/C=C/c3cccc4[nH]cc(SC#N)c34)c12 ?
0.895

Which TGI reading was recorded for the compound Cc1c(S(=O)(=O)/N=C(\NO)Nc2ccc(Cl)cc2)sc2ccc(Cl)cc12 ?
30.6

Which TGI reading was recorded for the compound O[C@@H]1CCCCN1Cc1cc2cc3c(cc2c2cc(OCc4ccccc4)ccc12)OCO3 ?
4.37

Which TGI reading was recorded for the compound CS(=O)(=O)Sc1ccc(Cl)cc1 ?
22.2

---

Give TGI for every item shown.
- System: A498 renal
- assay.comment: NCI tumour cell line growth inhibition, 48 h
Numeric answer only, unit µM assumed.

Which TGI reading was recorded for the molecule C=C1C(=O)O[C@H]2[C@H]1CC/C(COC(=O)NCc1ccc(Cn3c(=O)sn(CCCI)c3=O)cc1)=C\CC[C@@]1(C)O[C@@H]21 ?
16.8

Which TGI reading was recorded for the molecule c1ccc2sc(C3(N4CCCCCC4)CCCCC3)cc2c1 ?
36.8

Which TGI reading was recorded for the molecule CCC[CH2][Sn]1([CH2]CCC)[O]C(=O)c2cccnc2[S]1 ?
5.3

Which TGI reading was recorded for the molecule Cc1n[nH]c(C)c1-c1c(C)n[nH]c1C ?
4.12

Which TGI reading was recorded for the molecule CN(C)CCCCN1c2ccccc2Sc2ccc(N=[N+]=[N-])cc21 ?
21.5

Which TGI reading was recorded for the molecule Nc1ccc(Oc2ccc(C3(c4ccc(Oc5ccc(N)c(O)c5)cc4)C4CC5CC(C4)CC3C5)cc2)cc1O ?
31

Which TGI reading was recorded for the molecule COc1cc(/C=C2\C(=O)Nc3ccc(O)cc32)cc(OC)c1OC ?
40.6

Which TGI reading was recorded for the molecule CC1(C)OC2OC(/C=C/[N+](=O)[O-])C3OC(C)(C)OC3C2O1 (stereo not given) ?
47.1

Which TGI reading was recorded for the molecule CN1CN(c2ccccc2)C2(CCN(CCCN(C)c3ccc(F)cc3)CC2)C1=O ?
72.6

Which TGI reading was recorded for the molecule CN1CC[C@H](N(C)C(=O)N2CC(c3cc(F)ccc3F)=C[C@@]2(CO)c2ccccc2)[C@H](F)C1 ?
24.8

Which TGI reading was recorded for the molecule N=C(N)c1ccc(-c2ccc(-c3cccs3)s2)cc1F ?
0.621

Which TGI reading was recorded for the molecule COc1ccc2nc3cc(Cl)ccc3c(NCCCN(C)CCCNc3ccc4ncn5c6ccccc6c(=O)c3c45)c2c1 ?
6.52

Which TGI reading was recorded for the molecule Cc1ccccc1C1N=C2Oc3ccccc3C=C2C(=O)N1 (stereo not given) ?
2.58

Which TGI reading was recorded for the molecule CC(C)c1cc(C(C)C)c(S(=O)(=O)N/N=C2\CC3CCC2(C)C3(C)C)c(C(C)C)c1 (stereo not given) ?
32.7

Which TGI reading was recorded for the molecule N#CCC1CCN(c2nc(Nc3ccc(N4CCC(O)CC4)cc3)c3c(=O)[nH]ncc3n2)CC1 ?
1.74

Which TGI reading was recorded for the molecule CCOC(=O)n1c(=O)nc2c3c(ncn21)Oc1c(c(-c2ccccc2)nn1-c1ccccc1)C3c1ccc(Cl)cc1 (stereo not given) ?
3.85

Which TGI reading was recorded for the molecule CC(=O)Nc1ccc2c3c(cc(O)c2c1)N(C(=O)CCCCCCC(=O)Nc1ccc2c4c(cc(O)c2c1)N(C(=O)OC(C)(C)C)CC4CCl)CC3CCl (stereo not given) ?
0.0819

Which TGI reading was recorded for the molecule COC(=O)[C@@H](N1C(=O)c2ccccc2C1=O)C1(C)CC(Cl)=NO1 (stereo not given in full) ?
99.7

Which TGI reading was recorded for the molecule CCOc1ccc(-c2nc3ccc(-c4nc5ccc(N6CCN(C)CC6)cc5[nH]4)cc3[nH]2)cc1OCC ?
4.58

Which TGI reading was recorded for the molecule O=c1[nH]c2ccccc2c(=O)c2cc3ccccc3cc12 ?
48.4

Which TGI reading was recorded for the molecule CC1(C)CCC(c2ccc(Cl)cc2)=C(CN2CCN(c3ccc(C(=O)NS(=O)(=O)c4ccc(N[C@H](CCN5CCOCC5)CSc5ccccc5)c(S(=O)(=O)C(F)(F)F)c4)cc3)CC2)C1 ?
0.115

Which TGI reading was recorded for the molecule C[N+](C)(C)CC(=O)N/N=C\c1c(O)ccc2ccccc12 ?
97.8
